Reference for the values: the supplement of paper PMC10567573

Please go through the items and note down their protein stability index.
B1: VTI1B (parent)
chain: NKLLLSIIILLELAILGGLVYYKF

Variants of: B1
EXPERIMENT_SUMMARY: protein stability index of a GFP-peptide fusion (GPS, HEK-293T) (PSI 1-6); higher = more stable;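 further: lentivirally expressed fusions sorted by FACS into six bins by GFP to DsRed ratio, PSI derived from sequencing read proportions per bin multiplied by bin number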
CONDITION_DESCRIPTION: c terminus: a fixed tail appended

Which protein stability index reading was recorded for the variant NKDLLSIIILLELAILGGLVYYKF ? 3.73

What do you have for NKLLLSIIILLELAIPGGLVYYKF ? 2.27

And the next one, NKLLLSIKILLELAILGGLVYYKF ? 2.87

Please give the result for NHLLLSIIILLELAILGGLVYYKF too. 2.48

Ok, now NKLLLSIIILLELAELGGLVYYKF 2.52

// same read-out, input: NKLLLVIIILLELAILGGLVYYKF 2.5

And NKLLLSIWILLELAILGGLVYYKF ? 2.33

What do you get for NKLLLSIIILLELAWLGGLVYYKF ? 2.18

How about NKLYLSIIILLELAILGGLVYYKF ? 2.34

// query: NKLLLSIIILLELAILGGLCYYKF 1.34

Same for NKLLLSIIILLELAILGFLVYYKF 1.55

Try this variant next: NKLLLSIIILLELAIAGGLVYYKF 4.1

Request: NKLLLSIIILLELAILPGLVYYKF 2.58

Now try NKLLLSIIFLLELAILGGLVYYKF . 2.03
